Tested on: 266295-075-R-J1-PDC spheroid viability;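 also: spheroids exposed to compounds for seven days before readout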
Test: Anticancer human tumor 266295-075-R-J1-PDC patient-derived head and neck squamous carcinoma cell line growth inhibition [POLQ]
Conditions: second compound 0.0316 µM; first compound 10 µM; stronger effect = lower value; spheroids with HUVEC and MSC
One threshold, 60%, splits the recorded viability, T/C values: lower ones are Y, equal or higher ones are N.

As a guide, the following entries are already answered.
Strictly below 60% in viability, T/C? C=CC(=O)N1CCN(c2nc(=O)n(-c3c(C)ccnc3C(C)C)c3nc(-c4c(O)cccc4F)c(F)cc23)C(C)C1 (centres undefined) + Nc1ccc(C#CCN(C(=O)Cc2ncc(C(F)(F)F)cc2C(F)(F)F)c2ccc(F)cc2)nn1
N

Strictly below 60% in viability, T/C? CCc1cc2c(N3CCc4c(cc(Cn5ccnc5)cc4-c4cn(C)nc4C(F)(F)F)C3=O)cc(C)nc2c(OC)n1 + Cc1cccc(N(C)C(=O)C2C(O)CCN2c2nc(C)cc(C(F)(F)F)c2C#N)c1
N

***
Strictly below 60% in viability, T/C? COc1cc(C2c3cc4c(cc3C(OC3OC5COC(C)OC5C(O)C3O)C3COC(=O)C23)OCO4)cc(OC)c1O (centres undefined) + Cc1cccc(N(C)C(=O)C2C(O)CCN2c2nc(C)cc(C(F)(F)F)c2C#N)c1
N

Strictly below 60% in viability, T/C? CC1COCCN1c1cc(-c2ccnn2C)c2ccnc(-c3ccn[nH]3)c2n1 (centres undefined) + COC1C(OC(N)=O)C(O)C(Oc2ccc3c(O)c(NC(=O)c4ccc(O)c(CC=C(C)C)c4)c(=O)oc3c2C)OC1(C)C
Y

Strictly below 60% in viability, T/C? COc1cccc2c1C(=O)c1c(O)c3c(c(O)c1C2=O)CC(O)(C(=O)CO)CC3OC1CC(N)C(O)C(C)O1 (centres undefined) + Cc1cccc(N(C)C(=O)C2C(O)CCN2c2nc(C)cc(C(F)(F)F)c2C#N)c1
Y

Strictly below 60% in viability, T/C? COc1ccc([C@@H](O)c2cc(-c3ncnc4cc(N5CCOCC5)ccc34)c(F)cc2Cl)nn1 + Cc1cccc(N(C)C(=O)C2C(O)CCN2c2nc(C)cc(C(F)(F)F)c2C#N)c1
Y

Strictly below 60% in viability, T/C? O=c1[nH]cc(F)c(=O)[nH]1 + Nc1ccc(C#CCN(C(=O)Cc2ncc(C(F)(F)F)cc2C(F)(F)F)c2ccc(F)cc2)nn1
N
